Test system: 786-O
assay info: AUC of dose-response viability curve, drug + dasatinib, normalised to DMSO (arbitrary (AUC of normalised viability)); higher = less growth inhibition
measurement setup: treatment: drug + dasatinib (fixed dose, not stated); 5 days
observable: AUC of dose-response viability curve
Please give the numeric answer without any surrounding text.

// recorded AUC of dose-response viability curve for CC1(C)CCC(c2ccc(Cl)cc2)=C(CN2CCN(c3ccc(C(=O)NS(=O)(=O)c4ccc(N[C@H](CCN5CCOCC5)CSc5ccccc5)c(S(=O)(=O)C(F)(F)F)c4)cc3)CC2)C1 [ABT-263 (Navitoclax)] + Cc1nc(Nc2ncc(C(=O)Nc3c(C)cccc3Cl)s2)cc(N2CCN(CCO)CC2)n1 [dasatinib] : 1.46

// recorded AUC of dose-response viability curve for CN(C[C@@H]1COCCO1)S(=O)(=O)Nc1ccc2ccc3ncc(-c4cnn(C)c4)cc3c(=O)c2c1 [MK-2461] + Cc1nc(Nc2ncc(C(=O)Nc3c(C)cccc3Cl)s2)cc(N2CCN(CCO)CC2)n1 [dasatinib] : 4.08

// recorded AUC of dose-response viability curve for CCO.N#CC(=C(/N)Sc1ccccc1N)/C(C#N)=C(\N)Sc1ccccc1N [U0126-EtOH] + Cc1nc(Nc2ncc(C(=O)Nc3c(C)cccc3Cl)s2)cc(N2CCN(CCO)CC2)n1 [dasatinib] : 2.5

// recorded AUC of dose-response viability curve for CCN(CC)CCCCNc1ncc2cc(-c3cc(OC)cc(OC)c3)c(NC(=O)NC(C)(C)C)nc2n1 + Cc1nc(Nc2ncc(C(=O)Nc3c(C)cccc3Cl)s2)cc(N2CCN(CCO)CC2)n1 [dasatinib] : 2.02

// recorded AUC of dose-response viability curve for FC(F)c1nc2ccccc2n1-c1nc(N2CCOCC2)nc(N2CCOCC2)n1 [ZSTK474] + Cc1nc(Nc2ncc(C(=O)Nc3c(C)cccc3Cl)s2)cc(N2CCN(CCO)CC2)n1 [dasatinib] : 1.61

// recorded AUC of dose-response viability curve for CC(=O)c1c(C)c2cnc(Nc3ccc(N4CCNCC4)cn3)nc2n(C2CCCC2)c1=O.Cl + Cc1nc(Nc2ncc(C(=O)Nc3c(C)cccc3Cl)s2)cc(N2CCN(CCO)CC2)n1 [dasatinib] : 1.87

// recorded AUC of dose-response viability curve for Cc1nc(NC(=O)N2CCC[C@H]2C(N)=O)sc1-c1csc(C(C)(C)C)n1 [A66] + Cc1nc(Nc2ncc(C(=O)Nc3c(C)cccc3Cl)s2)cc(N2CCN(CCO)CC2)n1 [dasatinib] : 1.88

// recorded AUC of dose-response viability curve for O=c1c(O)c(-c2ccc(O)c(O)c2)oc2cc(O)cc(O)c12 [Quercetin (Sophoretin)] + Cc1nc(Nc2ncc(C(=O)Nc3c(C)cccc3Cl)s2)cc(N2CCN(CCO)CC2)n1 [dasatinib] : 1.89

// recorded AUC of dose-response viability curve for Cc1ccc(-n2nc(C(C)(C)C)cc2NC(=O)Nc2ccc(OCCN3CCOCC3)c3ccccc23)cc1 [BIRB 796 (Doramapimod)] + Cc1nc(Nc2ncc(C(=O)Nc3c(C)cccc3Cl)s2)cc(N2CCN(CCO)CC2)n1 [dasatinib] : 2.63
